Structures can show the parent of a compound that is named as a salt.
# Lookup of reported melting point keyed by entry

>>> value("Cc1ccc(C[C@H]2CN(C3=Nc4ccccc4Nc4sc(C)cc43)CCN2)cc1")
"92 to 101 °C"
>>> value("COc1ccccc1C[C@H]1CN(C2=Nc3ccccc3Nc3sc(C)nc32)CCN1C (as salt: hydrochloride)")
"185 °C"

As a next step, examine the compound that follows.
For the compound COc1cccc(C[C@H]2CN(C3=Nc4ccccc4Nc4sc(C)cc43)CCN2)c1 , what melting point is on record?
96 to 109 °C
